Value source: patent US20260200926A1

TARGET OR SYSTEM: Human TREM2 (Homo sapiens)
Construct: expressed in transfected cells
Sequence (Q9NZC2 19-230): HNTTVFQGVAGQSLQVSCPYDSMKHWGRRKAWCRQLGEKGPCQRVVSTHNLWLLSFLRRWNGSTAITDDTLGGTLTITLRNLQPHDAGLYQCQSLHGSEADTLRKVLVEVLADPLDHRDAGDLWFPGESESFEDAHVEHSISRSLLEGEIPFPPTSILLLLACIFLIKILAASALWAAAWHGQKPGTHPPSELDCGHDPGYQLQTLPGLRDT
Sequence (O43914 22-113 partner): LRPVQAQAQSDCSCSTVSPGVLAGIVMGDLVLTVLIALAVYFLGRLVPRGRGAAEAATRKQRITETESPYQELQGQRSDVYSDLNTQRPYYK
ASSAY OVERVIEW: Human TREM2 activity: cellular phosphorylation of Syk (AlphaLISA SureFire Ultra p-SYK) in HEK293/DAP12+TREM2 stable cell line
Type: cell-based
TEST CONDITIONS: HEK293; maximal response relative to reference agonist example 1B (remaining examples); read-out: Emax
Listed here are compounds together with their documented Emax.

Solved cases below.
If you can, please state the reported Emax value of Cc1nc2c(-c3cc(F)c(F)cc3F)nc([C@H]3CCO[C@@H](c4cnn(C5CC5)c4)C3)cc2c(=O)n1C (single isomer, unassigned) [Example 139B] .
< 75%

If you can, please state the reported Emax value of Cc1nc2c(-c3ccc(Cl)cc3F)nc([C@@H]3C[C@@H]3c3cnn(C)c3)cc2c(=O)n1C (single isomer, unassigned) [Example 148A] .
< 75%

If you can, please state the reported Emax value of Cc1nc2c(-c3ccc(Cl)cc3F)nc(N3CC(c4cnn(C)c4)OC(C)(C)C3)nc2c(=O)n1C (stereo not drawn) .
< 75%

If you can, please state the reported Emax value of Cc1cc([C@@H]2CN(c3cc4c(=O)n(C)c(C)nc4c(-c4ccc(F)cc4F)n3)CC(F)(F)O2)ccn1 (single isomer, unassigned) [Example 171A] .
> 110%

If you can, please state the reported Emax value of Cc1nc2c(C3CCNCC3)nc(N3CCOC(c4cnn(C)c4)C3)nc2c(=O)n1C (stereo not drawn) .
75 to 110%

# next compound below
If you can, please state the reported Emax value of Cc1cc([C@H]2CN(c3nc(-c4ccc(F)cc4F)c4nc(C)n(C)c(=O)c4n3)CCO2)ccn1 (single isomer, unassigned) [Example 122B] .
< 75%
